test system: Protein farnesyltransferase (Trypanosoma brucei); assay: Percentage in vitro inhibition of recombinant Trypanosoma brucei protein farnesyltransferase at 2 uM
Readout Name: inhibition (%)
Expressed in %, but write only the number.

Entry CCN(CC)C1=NS(=O)(=O)C(c2cc(-c3c(C)cc(C)cc3C)no2)=C1c1ccc(OC)cc1 , inhibition reported as 0

response.value for CCOC1C(c2c(C)cc(C)cc2C)=NOC1C1=C(c2ccc(OC)cc2)C(N(CC)CC)=NS1(=O)=O (stereo not given) (field: inhibition) = 10

// CCN(CC)C1=NS(=O)(=O)C(C2CC(c3ccccc3C)=NO2)=C1c1ccc(OC)cc1 (stereo not given) : inhibition value = 2

Input CCN(CC)C1=NS(=O)(=O)C(C#Cc2ccccc2)=C1c1ccc(OC)cc1 . Output inhibition: 0

Entry CCN(CC)C1=NS(=O)(=O)C(C2CC(c3c(C)c(Cl)c(C)c(Cl)c3C)=NO2)=C1c1ccc(OC)cc1 (stereo not given) — recorded inhibition = 28
